Field: kon. Provide a value for each of the binders that follow.
experimentalTarget: T1, 16mer biotinylated human IL-13 peptide number 24 (human, N-terminal biotin; C-terminal amide)
T1 construct: format Biotin-SGSG-PEPTIDE-amide; also called Peptide 24
T1 peptide: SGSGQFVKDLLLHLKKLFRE
experimentNotes: BIAcore analysis 3, antibody over biotinylated peptide on SA chip
Write it as a number; the unit M⁻¹ s⁻¹ goes unstated.

Measured kon, chimaeric 6A1 (antibody, human IgG1, V domains shown, Parent murine 6A1 V regions on human IgG1/k wild type C regions, expressed in CHO cells; also called 6A1c; 6A1 chimaeric antibody) VH: EIQLQQSVAELVRPGASVRLSCTASGFYIKDTYMHWVIQRPEQGLEWIGTIDPANGNTKYVPKFQGKATITADTSSNTAYLRLSSLTSEDTAIYYCARSIYDDYHYDDYYAMDYWGQGTSVTVSS VL: DVLMTQTPLSLPVSLGDQASISCRSSQNIVHINGNTYLEWYLQKPGQSPKLLIYKISDRFSGVPDRFSGSGSGTDFTLKISRVEAEDLGVYYCFQGSHVPWTFGGGTKLEIK : 257000

Measured kon, L1+A1 (antibody, human IgG1, kappa, V domains shown, Humanised 6A1, VH construct A1 and VL construct L1, human gamma1 wild type / kappa constant regions; also called A1L1; humanised anti-IL-13 mAb L1+A1) VH: QVQLVQSGAEVKKPGSSVKVSCKASGFYIKDTYMHWVRQAPGQGLEWMGTIDPANGNTKYVPKFQGRVTITADESTSTAYMELSSLRSEDTAVYYCARSIYDDYHYDDYYAMDYWGQGTLVTVSS VL: DIVMTQSPLSLPVTPGEPASISCRSSQNIVHINGNTYLEWYLQKPGQSPRLLIYKISDRFSGVPDRFSGSGSGTDFTLKISRVEADDVGIYYCFQGSHVPWTFGQGTKLEIKR : 195000

Measured kon, L2+A1 (antibody, human IgG1, kappa, V domains shown, Humanised 6A1, VH construct A1 and VL construct L2; also called A1L2) VH: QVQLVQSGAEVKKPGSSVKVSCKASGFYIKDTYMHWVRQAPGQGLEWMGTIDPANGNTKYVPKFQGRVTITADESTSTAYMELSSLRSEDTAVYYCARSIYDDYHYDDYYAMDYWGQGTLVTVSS VL: DIVMTQSPLSLPVTPGEPASISCRSSQNIVHINGNTYLEWYLQKPGQSPRLLIYKISDRFSGVPDRFSGSGSGTDFTLKISRVEADDVGVYYCFQGSHVPWTFGQGTKLEIKR : 179000

Measured kon, monoclonal antibody 6A1 (antibody, IgG1, V domains shown, also called 6A1 parental mAb; parental mouse mAb 6A1) VH: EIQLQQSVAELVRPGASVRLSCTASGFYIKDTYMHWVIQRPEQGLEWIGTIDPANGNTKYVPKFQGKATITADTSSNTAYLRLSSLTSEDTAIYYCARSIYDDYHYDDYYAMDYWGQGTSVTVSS VL: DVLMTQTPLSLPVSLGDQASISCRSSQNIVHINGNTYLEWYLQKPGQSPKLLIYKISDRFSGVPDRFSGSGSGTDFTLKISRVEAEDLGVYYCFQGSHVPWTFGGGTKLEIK : 295000
